Target: ENL YEATS domain (association with H3K27cr) (Homo sapiens)
Test: biochemical
Conditions: ENL (YEATS)-H3K27cr HTRF (IC50, μM), Table 1
Description: Protein Production. Double stranded DNA fragments encoding the protein sequence of ENL YEATS(1-148) were synthesized (IDT DNA) for assembly-based cloning into a modified expression vector backbone derived from pET21a (Novagen). […] Homogenous time-resolved FRET (HTRF) histone-binding assays. […] Assays were incubated for 2 or more hours before measurement of HTRF signal on a PHERAstar plate reader (BMG Labtech; simultaneous dual emission; excitation=337 nm, emission 1=665 nm, emission 2=620 nm). […]
EXPERIMENTAL_ENDPOINT: IC50 (µM)

Worked cases, IC50 given:
COc1ccc(-c2cn3cc(C(=O)NC(C)C)ccc3n2)cc1	1.3
CC(C)NC(=O)c1ccc2nc(-c3cccc(NS(=O)(=O)NCCCCCCCC(=O)O)c3)cn2c1	0.46
O=C(NC1CCCC1)c1ccc2nc(-c3ccccc3)cn2c1	1.8
COC[C@@H]1CC[C@@H]1NC(=O)c1ccc2nc(-c3ccccc3)cn2c1	58
COC(=O)[C@@H](Cc1c[nH]c2ccccc12)NS(=O)(=O)Nc1cccc(-c2cn3cc(C(=O)NC(C)C)ccc3n2)c1	0.87

[a] O=C(NC1CCC1)c1ccc2nc(-c3cccc(NS(=O)(=O)CCCN4CCCCC4)c3)cn2c1
[b] COc1ccc(CNS(=O)(=O)Nc2cccc(-c3cn4cc(C(=O)NC(C)C)ccc4n3)c2)c(OC)c1
Could you tell me which of these two has the smaller IC50 figure? First: a Second: b When you have decided, please share the label of that item.
a
(a: 0.134 µM, b: 0.52 µM)

###

Target: ENL(YEATS)-HiBiT (Homo sapiens, UniProt Q03111)
Sequence (Q03111 1-138 limits assumed): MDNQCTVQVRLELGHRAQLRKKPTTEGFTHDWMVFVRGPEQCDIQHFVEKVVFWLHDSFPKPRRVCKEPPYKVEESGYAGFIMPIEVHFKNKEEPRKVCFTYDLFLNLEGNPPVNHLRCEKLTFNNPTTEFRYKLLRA
Conditions: read-out: ENL YEATS CETSA (IC50); Table 2; OCI/AML-2 cells expressing ENL(YEATS)-HiBiT
This section presents compounds with their documented IC50 values.

Query (compound): `O=C(NC1CC(F)(F)C1)c1ccc2nc(-c3ccccc3)cn2c1` ; field requested: IC50
> 50 µM

Find the recorded IC50 belonging to `CC(C)NC(=O)c1ccc2nc(-c3ccccc3OC(F)(F)F)cn2c1` and report it.
> 100 µM

Name the recorded IC50 for `O=C(NC1(CO)CCC1)c1ccc2nc(-c3ccccc3)cn2c1` .
> 50 µM

IC50 for `N#CC1(NC(=O)c2ccc3nc(-c4ccccc4)cn3c2)CCC1` ?
> 50 µM

So what's the measured IC50 for this one? `O=C(N[C@H]1CCc2ccccc21)c1ccc2nc(-c3ccccc3)cn2c1`
> 50 µM

# IC50 lookup, item `CC(C)NC(=O)c1ccc2nc(-c3ccccc3C(F)(F)F)cn2c1`
> 100 µM

Look up IC50: `CC1(NC(=O)c2ccc3nc(-c4ccccc4)cn3c2)CCC1`
> 50 µM

What value of measured IC50 is listed for `CCC(CC)NC(=O)c1ccc2nc(-c3ccccc3)cn2c1` ?
> 100 µM

Which value of IC50 has been reported for CC(C)(C)C1CC(NC(=O)c2ccc3nc(-c4ccccc4)cn3c2)C1 (stereo not drawn) in the records?
> 50 µM
